assay: Stability in HEK293T cellular extract assessed as compound degradation level at 1 mM incubated after 48 hrs at 37 degC; format: ADME, HEK-293T; conditions: human, read-out: Activity
Give measured metabolised at 48 h, 1000 µM for each item. Keep answers brief.
One number for each entry, in %.

Please look at the items below and tell me metabolised at 48 h, 1000 µM for each one, in order.
1. Nc1ncnc2c1ncn2[C@@H]1O[C@H](COP(=O)(O)OP(=O)(O)OP(=O)(O)OC[C@H]2O[C@@H](n3cnc4c(N)ncnc43)[C@H](O)[C@@H]2O)[C@@H](O)[C@H]1O
2. Nc1ncnc2c1ncn2[C@@H]1O[C@H](COP(=O)(O)OP(=O)(O)OP(=O)(O)OP(=O)(O)OC[C@H]2O[C@@H](n3cnc4c(N)ncnc43)[C@H](O)[C@@H]2O)[C@@H](O)[C@H]1O [DIADENOSINE TETRAPHOSPHATE]

RESULT:
88.7
92.8
